Provenance of the data: patent US20150218172A1

biological target: TrkA (Homo sapiens, UniProt P04629); construct: aa 441-796; His; purchased Invitrogen PV3144; assay: Isolated TRK enzyme assay (HTRF KinEASE-TK kit), PV3144 TrkA enzyme assay; type: biochemical; conditions: PV3144 TrkA enzyme assay, recombinant His-tagged cytoplasmic domain aa 441-796, 4 nM enzyme, 40 uM ATP; arithmetic mean where more than one reading; read-out: Trka enzyme (IC50)
Sequence (P04629 441-796): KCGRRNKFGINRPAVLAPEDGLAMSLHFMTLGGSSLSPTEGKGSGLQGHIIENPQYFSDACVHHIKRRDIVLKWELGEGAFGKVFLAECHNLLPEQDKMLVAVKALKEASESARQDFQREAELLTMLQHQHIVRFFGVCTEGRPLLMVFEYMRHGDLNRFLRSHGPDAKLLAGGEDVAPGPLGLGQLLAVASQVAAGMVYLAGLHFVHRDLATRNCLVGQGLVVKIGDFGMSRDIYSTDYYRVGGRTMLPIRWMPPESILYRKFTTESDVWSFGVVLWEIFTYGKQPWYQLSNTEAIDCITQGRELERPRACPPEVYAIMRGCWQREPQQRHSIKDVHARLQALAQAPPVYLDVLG
pIC50: −log10 of the molar value.
outcomeMeasure: pIC50

Use the examples below as a reference point.
# querySmiles, pIC50
rows = [
    ("Cc1cc(C(F)(F)F)nn1CC(=O)Nc1ccnc(C(=O)c2cn(C(C)C)c3nc(N)ncc23)c1", 7.57),
    ("Cc1cc(C)n(CC(=O)Nc2cc(C(=O)c3cn([C@H]4CC[C@@H](O)CC4)c4ncncc34)ccn2)n1", 7.13),
]

I = CC1(n2cc(C(=O)c3cc(NC(=O)Cc4ccc(F)cn4)ccn3)c3cncnc32)COC1
II = CC1(n2cc(C(=O)c3cc(NC(=O)Cc4ccc(C(F)(F)F)c(F)c4)ccn3)c3cncnc32)COC1
III = CC1(n2cc(C(=O)c3cc(NC(=O)Cc4cccc(C(F)(F)F)c4)ccn3)c3cncnc32)COC1
Arrange these 3 compounds in increasing order of pIC50. The reply should contain the labels ordered as requested.
I, II, III
(I: 5.97, II: 7.00, III: 7.28)

P = CS(=O)(=O)c1cccc(CC(=O)Nc2cc(C(=O)c3cn(CCO)c4ncncc34)ccn2)c1
Q = C[C@@H](CO)n1cc(C(=O)c2cc(NC(=O)Cc3ccc(Cl)cc3)ccn2)c2cncnc21
Hi team, can someone confirm which has the larger pIC50: P or Q ? Thanks. Answer by stating the label of the chosen item.
Q

* * *

molecular target: TrkA (Homo sapiens, UniProt P04629); construct: aa 441-796; His; purchased Invitrogen PV3144; assay: Isolated TRK enzyme assay (HTRF KinEASE-TK kit), PV3144 TrkA enzyme assay; format: biochemical
outcomeMeasure: pIC50
# log scale: pIC50 equals minus log10 of the concentration in mol/L

Requested read-out: pIC50. Entry: "Cc1cc(C)n(CC(=O)Nc2cc(C(=O)c3cn(CC4CC4)c4ncncc34)ccn2)n1"
6.97

* * *

target: TrkA (Homo sapiens, UniProt P04629); construct: aa 441-796; His; purchased Invitrogen PV3144; test: Isolated TRK enzyme assay (HTRF KinEASE-TK kit), PV3144 TrkA enzyme assay; format: biochemical; conditions: PV3144 TrkA enzyme assay, recombinant His-tagged cytoplasmic domain aa 441-796, 4 nM enzyme, 40 uM ATP; arithmetic mean where more than one reading; read-out: Trka enzyme (IC50)
pIC50: −log10 of the molar value.
outcomeMeasure: pIC50

# querySmiles, pIC50
data = [
    ("CC(C)(CO)n1cc(C(=O)c2cc(NC(=O)Cn3ccc(C(F)(F)F)n3)ccn2)c2cncnc21", 7.91),
]

1 = CC(C)(CO)n1cc(C(=O)c2cc(NC(=O)Cc3cccc(C(F)(F)F)c3)ccn2)c2cncnc21
2 = C[C@H](CO)n1cc(C(=O)c2cc(NC(=O)Cc3ccc(C(F)(F)F)cc3)ccn2)c2cncnc21
Lowest pIC50? choose 1 or 2 Answer by stating the label of the chosen item.
2
(2: 7.23, 1: 8.18)

a = Cc1cc(C(F)(F)F)nn1CC(=O)Nc1ccnc(C(=O)c2cn([C@H](C)CO)c3ncncc23)c1
b = O=C(Cc1ccc(Cl)cc1)Nc1cc(C(=O)c2cn(CCO)c3ncncc23)ccn1
Lowest pIC50? choose a or b Answer by stating the label of the chosen item.
a

I = CC(C)(CO)n1cc(C(=O)c2cc(NC(=O)Cc3ccc(C#N)cc3)ccn2)c2cncnc21
II = O=C(Cc1ccc(Cl)cc1Cl)Nc1ccnc(C(=O)c2cn(C(CO)CO)c3ncncc23)c1
III = CC(C)(CO)n1cc(C(=O)c2cc(NC(=O)Cc3cccc(C(F)(F)F)c3)ccn2)c2cnc(N)nc21
List these items ordered by pIC50, big to small. The reply should contain the labels ordered as requested.
III, I, II
(III: 8.01, I: 7.18, II: 6.84)
